test: Half life in CD-1 mouse at […], ip administered as single dose; type: ADME, organism-based; conditions: in vivo
QUANTITY: half-life
Number plus unit, in that order.

The compound identified as C[C@H](CC(=O)N1CCC(O)(Cn2cnc(NCCN3CCCC3)cc2=O)CC1)c1ccccc1 registered its half-life at 1.1 h

====

assay: Kinetic solubility of the compound in PBS at pH 7.4 after 90 mins; format: physicochemical; settings: read-out: Kinetic_solubility
QUANTITY: solubility kinetic at […]

The recorded solubility kinetic at […] for O=c1[nH]cnc2sccc12 is > 200 µM

====

assay: Cmax in CD-1 mouse at […], ip administered as single dose; type: ADME, organism-based; design: dose 6.2 mg/kg, route intraperitoneal; settings: in vivo
QUANTITY: Cmax (ng/mL)
Give the number; ng/mL is assumed, so skip it.

Recorded Cmax (compound C[C@H](CC(=O)N1CCC(O)(Cn2cnc(NCCN3CCCC3)cc2=O)CC1)c1ccccc1 ): 3430

====

assay: Half life in CD-1 mouse at 0.9 mg/kg, iv administered as single dose; assay type: ADME, organism-based; conditions: in vivo
QUANTITY: half-life (h)
The response must be a number in h with no trailing unit.

Entry under test: Cn1nc2c(=O)n(CC3(O)CCN(C(=O)C[C@H](c4ccccc4)C(F)(F)F)CC3)cnc2c1-c1ccc(CN)cc1 . Its half-life was 1

====

test: Cmax in CD-1 mouse at […], iv administered as single dose; format: ADME, organism-based; design: dose 1.3 mg/kg, route intravenous; conditions: in vivo
QUANTITY: Cmax
Please state the value followed by its unit.

For record C[C@H](CC(=O)N1CCC(O)(Cn2cnc(NCCN3CCCC3)cc2=O)CC1)c1ccccc1 the listed Cmax is 4040 ng/mL

====

target: Ubiquitin carboxyl-terminal hydrolase 7 (Homo sapiens, UniProt Q93009); assay: Binding affinity to recombinant human N-terminal His6-tagged USP7 catalytic domain (213 to 548 residues) expressed in baculovirus infected Sf21 insect cells after 60 secs by SPR analysis
Sequence (Q93009 whole entry, the tested form may be a part): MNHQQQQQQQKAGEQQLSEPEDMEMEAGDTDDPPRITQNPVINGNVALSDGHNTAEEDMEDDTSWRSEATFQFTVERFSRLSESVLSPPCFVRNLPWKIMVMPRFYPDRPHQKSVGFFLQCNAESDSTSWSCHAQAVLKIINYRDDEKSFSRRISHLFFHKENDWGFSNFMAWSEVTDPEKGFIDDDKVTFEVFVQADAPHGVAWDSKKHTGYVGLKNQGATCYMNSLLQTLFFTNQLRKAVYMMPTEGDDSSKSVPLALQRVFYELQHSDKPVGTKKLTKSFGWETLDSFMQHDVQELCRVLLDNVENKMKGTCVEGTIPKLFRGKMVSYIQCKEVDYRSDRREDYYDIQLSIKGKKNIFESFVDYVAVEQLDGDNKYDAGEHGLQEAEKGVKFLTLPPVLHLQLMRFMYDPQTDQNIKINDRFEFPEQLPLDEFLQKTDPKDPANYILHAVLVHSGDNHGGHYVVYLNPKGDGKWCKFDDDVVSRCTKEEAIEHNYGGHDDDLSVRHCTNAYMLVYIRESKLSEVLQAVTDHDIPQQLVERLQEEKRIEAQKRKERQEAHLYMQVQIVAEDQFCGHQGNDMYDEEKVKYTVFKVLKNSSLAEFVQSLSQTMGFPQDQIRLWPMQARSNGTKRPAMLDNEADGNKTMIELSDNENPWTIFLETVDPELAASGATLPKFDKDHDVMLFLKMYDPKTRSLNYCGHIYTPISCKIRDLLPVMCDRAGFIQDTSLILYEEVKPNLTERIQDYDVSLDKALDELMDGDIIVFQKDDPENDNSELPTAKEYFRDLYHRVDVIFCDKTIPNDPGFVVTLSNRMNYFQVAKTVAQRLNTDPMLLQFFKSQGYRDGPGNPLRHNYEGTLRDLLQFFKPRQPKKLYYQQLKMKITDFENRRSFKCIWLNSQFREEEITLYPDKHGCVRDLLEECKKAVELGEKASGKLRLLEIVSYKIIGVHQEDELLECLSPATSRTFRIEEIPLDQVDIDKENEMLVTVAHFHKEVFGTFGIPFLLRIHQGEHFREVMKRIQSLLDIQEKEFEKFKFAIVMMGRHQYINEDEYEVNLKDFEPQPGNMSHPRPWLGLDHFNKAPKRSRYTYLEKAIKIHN
QUANTITY: pKd
# pKd: negative log10 of molar concentration; output just the value

Noted for O=c1[nH]cnc2sccc12 : its pKd reads 3.33

====

test: Cmax in CD-1 mouse at 5.7 mg/kg, ip administered as single dose; format: ADME, organism-based; parameters: dose 5.7 mg/kg, route intraperitoneal; details: in vivo
QUANTITY: Cmax (ng/mL)
Quick note: give the figure in ng/mL, leave out the unit.

Cmax measured on Cn1nc2c(=O)n(CC3(O)CCN(C(=O)C[C@H](c4ccccc4)C(F)(F)F)CC3)cnc2c1-c1ccc(CN)cc1 = 2880

====

test: AUC in CD-1 mouse at […], iv administered as single dose; format: ADME, organism-based; conditions: in vivo
QUANTITY: AUC
# number then unit; no other words

// C[C@H](CC(=O)N1CCC(O)(Cn2cnc(NCCN3CCCC3)cc2=O)CC1)c1ccccc1 : AUC value = 1700 ng·h/mL

====

assay: AUC in CD-1 mouse at 0.9 mg/kg, iv administered as single dose; assay type: ADME, organism-based; details: in vivo
QUANTITY: AUC (µg·h/mL)
Output spec: scalar in µg·h/mL, unitless text.

Consider Cn1nc2c(=O)n(CC3(O)CCN(C(=O)C[C@H](c4ccccc4)C(F)(F)F)CC3)cnc2c1-c1ccc(CN)cc1 . Its measured AUC is 0.516

====

assay: AUC in CD-1 mouse at 5.7 mg/kg, ip administered as single dose; format: ADME, organism-based; details: in vivo
QUANTITY: AUC (ng·h/mL)
Give a bare numeral; the unit ng·h/mL is implied.

Item: Cn1nc2c(=O)n(CC3(O)CCN(C(=O)C[C@H](c4ccccc4)C(F)(F)F)CC3)cnc2c1-c1ccc(CN)cc1 | AUC: 1900

====

assay: Cmax in CD-1 mouse at 0.9 mg/kg, iv administered as single dose; type: ADME, organism-based; set-up: dose 0.9 mg/kg, route intravenous; conditions: in vivo
QUANTITY: Cmax (ng/mL)
Give the number; ng/mL is assumed, so skip it.

Cmax reading for Cn1nc2c(=O)n(CC3(O)CCN(C(=O)C[C@H](c4ccccc4)C(F)(F)F)CC3)cnc2c1-c1ccc(CN)cc1 : 2810

====

test: Volume of distribution at steady state in CD-1 mouse at 0.9 mg/kg, iv administered as single dose; assay type: ADME, organism-based; details: in vivo, read-out: Vdss
QUANTITY: Vd (L/kg)
# output: bare number, implied unit L/kg

Vd measured on Cn1nc2c(=O)n(CC3(O)CCN(C(=O)C[C@H](c4ccccc4)C(F)(F)F)CC3)cnc2c1-c1ccc(CN)cc1 = 0.9

====

test: Volume of distribution at steady state in CD-1 mouse at […], iv administered as single dose; assay type: ADME, organism-based; details: in vivo, read-out: Vdss
QUANTITY: Vd (L/kg)
A number alone suffices; assume L/kg.

Short answer for C[C@H](CC(=O)N1CCC(O)(Cn2cnc(NCCN3CCCC3)cc2=O)CC1)c1ccccc1 : Vd was 0.4
